Reference for the values: the NIST ThermoML archive (doi:10.1016/j.jct.2009.07.018)

Entries and their surface tension liquid-gas values follow.
Reported conditions: 323.15 K, Maximal bubble pressure

Compound: CCCCCCCCCC [decane]
surface tension liquid-gas (mN/m): 21.07
//
Compound: O [water]
surface tension liquid-gas (mN/m): 67.96
//
Compound: CCCCCCC [heptane]
surface tension liquid-gas (mN/m): 17.15
//
Compound: CCCCC [pentane]
surface tension liquid-gas (mN/m): 11.95

====

Reported conditions: 293.15 K, Maximal bubble pressure

Smiles str: CCCCC
surface tension liquid-gas, mN/m: 15.94
//
Smiles str: CCCCCCCCCC
surface tension liquid-gas, mN/m: 23.83
//
Smiles str: O
surface tension liquid-gas, mN/m: 72.84
//
Smiles str: CCCCCCC
surface tension liquid-gas, mN/m: 20.12
